normalized growth values by entry
protocol-details: chemical genetic growth profiling, strain panel (AID 1159580);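 further: tested at 20 µM; growth read once vehicle control cultures reached saturation at 30 °C; 1 = growth at the plate median or of vehicle wells; lower values mean less growth of the strain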
condition-notes: S. cerevisiae deletion strains, growth OD, locus YJR043C, strain POL32, stronger effect = lower value
Screen size: about 5,500 compounds; about 2,000 (36%) were called active. Inconclusive results (about 18%) are left out. The list shows a part of the results.
// no unit string in output, number only

{"compound": "CCN(CC)C(C)CN1c2ccccc2Sc2ccccc21 (stereo not drawn)", "measured-endpoint": "normalized growth", "value-measured": 0.903}
{"compound": "C[C@H](CCC(=O)O)[C@H]1CCC2C3C(CC[C@@]21C)[C@@]1(C)CC[C@@H](O)C[C@H]1C[C@H]3O (stereo partly drawn)", "measured-endpoint": "normalized growth", "value-measured": 0.999}
{"compound": "Cc1cc(O)c(C=O)c2c1C(=O)Oc1c(COC(=O)/C=C/C(=O)O)c(O)c(C(=O)O)c(C)c1O2", "measured-endpoint": "normalized growth", "value-measured": 0.954}

// lookup normalized growth for `Cc1cc(NS(=O)(=O)c2ccc(NS(=O)(=O)c3cc(C)c(Cl)cc3C)cc2)no1`
1.04

Please report the recorded normalized growth for C=C1C2CCC3(C)C(c4ccoc4)OC(=O)CC13OC1CC(OC(C)=O)C(C)(C)C(CC(=O)OC)C12C (stereo not drawn) .
1.02

Recorded normalized growth for `CC12CC3CC(C)(C1)CC(N)(C3)C2` , please?
1.01

Fill blank: measured normalized growth of the compound `Clc1ccc2c(c1)C(N1CCNCC1)=Nc1ccccc1O2` is ____.
1.02

Item under review: `CN1CCN(C2=Nc3ccccc3Oc3ccc(Cl)cc32)CC1` . Reported normalized growth?
1.01

Quick one: normalized growth for `Cc1onc(-c2ccccc2)c1-c1nc(CSc2ccc(C(F)(F)F)cn2)no1` ?
0.957

Sample `NC(N)=NCCC[C@@H](NC(=O)[C@@H](N)Cc1ccc(O)cc1)C(=O)O` — what was its normalized growth?
1.01

Which normalized growth value belongs to CC(CN(C)C)CN1c2ccccc2Sc2ccccc21 (stereo not drawn) ?
1.02

What measured normalized growth goes with CN1CC(CNC(=O)OCc2ccccc2)CC2c3cccc4c3c(cn4C)CC21 (stereo not drawn) ?
1.07

Looking for the measured normalized growth of `NNCCc1ccccc1` , can you help?
0.988

Please look up its normalized growth: `CCCCC[C@H](CC(=O)NO)C(=O)N[C@H](C(=O)N1CCC[C@H]1CO)C(C)C`
0.978

Values were extracted from PubChem BioAssay AID1159580.
